- Tested System: HDAC6 enzyme (Homo sapiens)
- Construct: transducing full length HDAC1 and HDAC6 genes into Sf-9 insect cells; GST; purchased SignalChem; host or cells: Sf-9 insect cells
- Sequence (Q9UBN7 1-1215): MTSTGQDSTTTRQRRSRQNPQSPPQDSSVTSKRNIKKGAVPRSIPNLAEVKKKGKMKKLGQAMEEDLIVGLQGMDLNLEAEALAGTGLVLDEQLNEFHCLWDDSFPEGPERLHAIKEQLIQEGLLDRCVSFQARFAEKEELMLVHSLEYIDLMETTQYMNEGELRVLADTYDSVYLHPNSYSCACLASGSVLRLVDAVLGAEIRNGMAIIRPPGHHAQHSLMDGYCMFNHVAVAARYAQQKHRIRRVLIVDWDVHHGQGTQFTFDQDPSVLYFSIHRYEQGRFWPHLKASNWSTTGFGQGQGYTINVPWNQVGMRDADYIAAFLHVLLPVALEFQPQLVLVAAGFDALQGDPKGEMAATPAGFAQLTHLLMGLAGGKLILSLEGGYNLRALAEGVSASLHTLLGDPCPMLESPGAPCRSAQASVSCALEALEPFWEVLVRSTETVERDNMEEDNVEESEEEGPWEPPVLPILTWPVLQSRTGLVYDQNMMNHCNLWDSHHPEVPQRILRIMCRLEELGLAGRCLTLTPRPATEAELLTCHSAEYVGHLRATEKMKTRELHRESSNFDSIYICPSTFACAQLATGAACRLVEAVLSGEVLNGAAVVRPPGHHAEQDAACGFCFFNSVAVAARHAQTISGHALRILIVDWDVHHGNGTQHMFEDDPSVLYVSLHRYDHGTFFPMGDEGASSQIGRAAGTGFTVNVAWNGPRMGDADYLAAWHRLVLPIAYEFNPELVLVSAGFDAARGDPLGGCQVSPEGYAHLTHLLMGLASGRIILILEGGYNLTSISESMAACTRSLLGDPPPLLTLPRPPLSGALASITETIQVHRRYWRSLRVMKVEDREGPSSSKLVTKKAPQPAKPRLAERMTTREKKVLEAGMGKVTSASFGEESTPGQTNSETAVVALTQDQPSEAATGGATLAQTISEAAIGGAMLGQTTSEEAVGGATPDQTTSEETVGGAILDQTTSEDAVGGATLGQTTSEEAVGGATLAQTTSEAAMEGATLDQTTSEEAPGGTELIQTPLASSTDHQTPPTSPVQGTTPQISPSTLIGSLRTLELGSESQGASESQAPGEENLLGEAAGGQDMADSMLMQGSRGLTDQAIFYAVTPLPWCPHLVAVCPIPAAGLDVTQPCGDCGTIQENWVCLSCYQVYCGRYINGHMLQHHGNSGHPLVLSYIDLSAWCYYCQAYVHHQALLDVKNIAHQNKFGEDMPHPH
- Assay Procedure: HDAC6 enzyme inhibitory assay (HDAC-Glo I/II Assay kit)
- Format: biochemical
- Study Conditions: wells without enzyme = 100% inhibition, read-out: HDAC6 inhibitory rate (%) (1 μM)
Recorded Endpoint: inhibition at 1 µM (%)

{"columns": ["Molecule", "Readout Units", "inhibition at 1 µM"],
 "data": [
  ["O=C(NCC1CCCCN1C(=O)Nc1ccc(-c2noc(C(F)(F)F)n2)cc1)C1CCc2ccccc2O1 (stereo not drawn)", "%", 7],
  ["Cc1cccc(C(=O)NCC2CCCCN2C(=O)Nc2ccc(-c3noc(C(F)(F)F)n3)cc2)n1 (stereo not drawn)", "%", 2]
]}

A: Cc1cc(C(=O)NCC2CCCCN2C(=O)Nc2ccc(-c3noc(C(F)(F)F)n3)cc2)ccn1 (stereo not drawn)
B: O=C(Cc1cccs1)NCC1CCCCN1C(=O)Nc1ccc(-c2noc(C(F)(F)F)n2)cc1 (stereo not drawn)
C: O=C(NCC1CCCCN1C(=O)Nc1ccc(-c2noc(C(F)(F)F)n2)cc1)c1ccc(C(F)(F)F)cc1 (stereo not drawn)
D: O=C(NCC1CCCCN1C(=O)Nc1ccc(-c2noc(C(F)(F)F)n2)cc1)c1cccc(C(F)(F)F)c1 (stereo not drawn)
Task item: Let's sort these by inhibition at 1 µM, smallest first. Go ahead? To answer, write out the labels according to the requested order.
Reply: D, C, A, B

Reference source for all entries: patent US10406146B2
